Where do the numbers come from? From patent US20240174655A1.

tgt: Human M4 (Homo sapiens, UniProt P08173)
Construct: expressed in transfected cells; host or cells: CHO-K1 (Chinese hamster ovary, ATCC), stably expressing M4 and Gqi5
run.description: mAChR M4 cell-based functional assay (calcium flux, EC80 acetylcholine response)
measurement.conditions: M4/Gqi5/CHO-K1 cells; % ACh maximum at 30 μM; read-out: Human M4 Emin (% ACh maximum at 30 μM)

molecule	remaining activity at 30 µM / %
Cc1cc2nn(C)cc2cc1-c1ccc(N[C@H]2C[C@@H]3CN(CC4CCOCC4)C[C@@H]3C2)nn1 [compound 1]	3
[2H]C([2H])(C1CCOC(C)(C)C1)N1C[C@H]2C[C@H](Nc3ccc(-c4ccc5nn(C)cc5c4C)nn3)C[C@H]2C1 (stereo partly drawn) [compound 18]	4
[2H]C([2H])([C@H]1CCCCO1)N1C[C@H]2C[C@H](Nc3ccc(-c4ccc5nn(C)cc5c4C)nn3)C[C@H]2C1 [compound 11]	2
Cc1c(-c2cc(C(F)(F)F)c(N[C@H]3C[C@@H]4CN(CC5CCOCC5)C[C@@H]4C3)nn2)ccc2nn(C)cc12 [compound 30]	2
[2H]C([2H])(C1CCOCC1)N1C[C@H]2C[C@H](Nc3ccc(-c4ccc5nn(C(F)F)cc5c4C)nn3)C[C@H]2C1 [compound 10]	2
[2H]C([2H])(C1CC(C)(C)OC(C)(C)C1)N1C[C@H]2C[C@H](Nc3ccc(-c4ccc5nn(C)cc5c4C)nn3)C[C@H]2C1 [compound 19]	5
[2H]C([2H])(N1C[C@H]2C[C@H](Nc3ccc(-c4ccc5nn(C)cc5c4C)nn3)C[C@H]2C1)C1(F)CCOCC1 [compound 20]	4
[2H]C([2H])(N1C[C@H]2C[C@H](Nc3ccc(-c4ccc5nn(C)cc5c4C)nn3)C[C@H]2C1)C(F)(F)C1CCOCC1 [compound 23]	4
[2H]C([2H])(C1CCOCC1)N1C[C@H]2C[C@H](Nc3nnc(-c4ccc5nn(C)cc5c4C)cc3C)C[C@H]2C1 [compound 28]	17
Cn1cc2c(C(F)(F)F)c(-c3ccc(N[C@H]4C[C@@H]5CN(CC6CCOCC6)C[C@@H]5C4)nn3)ccc2n1 [compound 7]	3
[2H]C([2H])([C@H]1CCCOC1)N1C[C@H]2C[C@H](Nc3ccc(-c4ccc5nn(C)cc5c4C)nn3)C[C@H]2C1 [compound 14]	3
COc1cc(-c2ccc3nn(C)cc3c2C)nnc1N[C@H]1C[C@@H]2CN(CC3CCOCC3)C[C@@H]2C1 [compound 26]	4
[2H]C([2H])(C1CCOCC1)N1C[C@H]2C[C@H](Nc3ccc(-c4ccc5nn(C([2H])([2H])[2H])cc5c4C)nn3)C[C@H]2C1 [compound 9]	3
[2H]C([2H])(C1CCOCC1)N1C[C@H]2C[C@H](Nc3ccc(-c4ccc5nn(C([2H])([2H])[2H])cc5c4C(F)F)nn3)C[C@H]2C1 [compound 22]	4
Cc1c(-c2ccc(N[C@H]3C[C@@H]4CN(Cc5ccccn5)C[C@@H]4C3)nn2)ccc2nn(C)cc12 [compound 4]	3
[2H]C([2H])(C1CCOCC1)N1C[C@H]2C[C@H](Nc3ccc(-c4ccc5nn(C)cc5c4C)nn3)C[C@H]2C1 [compound 6]	3
[2H][C@@]1(Nc2ccc(-c3ccc4nn(C)cc4c3C)nn2)C[C@H]2CN(CC3CCOCC3)C[C@H]2C1 [compound 3]	2
Cc1cc(N[C@H]2C[C@@H]3CN(CC4CCOCC4)C[C@@H]3C2)nnc1-c1ccc2nn(C)cc2c1C [compound 27]	3
[2H]C([2H])([C@H]1COCCO1)N1C[C@H]2C[C@H](Nc3ccc(-c4ccc5nn(C)cc5c4C)nn3)C[C@H]2C1 [compound 15]	3
Cc1c(-c2ccc(N[C@H]3C[C@@H]4CN(CC5CCOCC5)C[C@@H]4C3)nn2)ccc2nn(C)cc12 [compound 2]	4
Cc1c(-c2cc(C(F)F)c(N[C@H]3C[C@@H]4CN(CC5CCOCC5)C[C@@H]4C3)nn2)ccc2nn(C)cc12 [compound 29]	3
[2H]C1([2H])CC(C([2H])([2H])N2C[C@H]3C[C@H](Nc4ccc(-c5ccc6nn(C)cc6c5C)nn4)C[C@H]3C2)CC([2H])([2H])O1 [compound 21]	3
[2H]C1([2H])CC(C([2H])([2H])N2C[C@H]3C[C@H](Nc4nnc(-c5ccc6nn(C)cc6c5C)cc4C)C[C@H]3C2)CC([2H])([2H])O1 [compound 24]	3
[2H]C([2H])(C1CCOCC1)N1C[C@H]2C[C@H](Nc3ccc(-c4ccc5nn(C)cc5c4C(F)(F)F)nn3)C[C@H]2C1 [compound 8]	10

====

tgt: Human M4 (Homo sapiens, UniProt P08173)
Construct: expressed in transfected cells; host or cells: CHO-K1 (Chinese hamster ovary, ATCC), stably expressing M4 and Gqi5
Sequence (P08173 1-479): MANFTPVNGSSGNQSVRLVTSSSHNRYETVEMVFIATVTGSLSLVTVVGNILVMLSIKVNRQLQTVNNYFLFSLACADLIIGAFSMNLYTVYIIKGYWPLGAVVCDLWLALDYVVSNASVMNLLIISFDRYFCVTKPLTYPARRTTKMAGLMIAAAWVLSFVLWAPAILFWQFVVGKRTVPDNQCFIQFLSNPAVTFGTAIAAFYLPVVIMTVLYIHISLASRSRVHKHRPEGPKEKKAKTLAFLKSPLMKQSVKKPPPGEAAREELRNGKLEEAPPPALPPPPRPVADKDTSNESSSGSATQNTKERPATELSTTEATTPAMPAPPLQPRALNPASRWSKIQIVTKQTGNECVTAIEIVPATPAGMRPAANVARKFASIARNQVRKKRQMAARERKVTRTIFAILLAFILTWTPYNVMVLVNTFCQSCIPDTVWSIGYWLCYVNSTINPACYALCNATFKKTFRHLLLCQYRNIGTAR
run.description: mAChR M4 cell-based functional assay (calcium flux, EC80 acetylcholine response)
measurement.conditions: M4/Gqi5/CHO-K1 cells; % ACh maximum at 30 μM; read-out: Human M4 Emin (% ACh maximum at 30 μM)
Procedure: Human or rat M4 cDNA, along with the chimeric G protein Gqi5, were transfected into Chinese hamster ovary (CHO-K1) cells purchased from the American Type Culture Collection using Lipofectamine2000. […] Calcium flux was measured using the Functional Drug Screening System (FDSS) 6000 or 7000 (Hamamatsu Corporation, Tokyo, Japan) as an increase in the fluorescent static ratio. […] Agonist activity was analyzed as a concentration-dependent increase in calcium mobilization upon compound addition. […]
Each item that follows carries a reported remaining activity at 30 µM.

compound	remaining activity at 30 µM / %
[2H]C([2H])([C@@H]1CCCCO1)N1C[C@H]2C[C@H](Nc3ccc(-c4ccc5nn(C)cc5c4C)nn3)C[C@H]2C1	2
[2H]C([2H])(C1CCOCC1(C)C)N1C[C@H]2C[C@H](Nc3ccc(-c4ccc5nn(C)cc5c4C)nn3)C[C@H]2C1 (some centres unmarked)	3
[2H]C([2H])([C@@H]1COCCO1)N1C[C@H]2C[C@H](Nc3ccc(-c4ccc5nn(C)cc5c4C)nn3)C[C@H]2C1	3
[2H]C([2H])([2H])N(c1cc(C(F)(F)F)c(-c2ccc3nn(C)cc3c2C)nn1)[C@H]1C[C@@H]2CN(CC3CCOCC3)C[C@@H]2C1	3
[2H]C([2H])([C@@H]1CCCOC1)N1C[C@H]2C[C@H](Nc3ccc(-c4ccc5nn(C)cc5c4C)nn3)C[C@H]2C1	4

====

tgt: Human M4 (Homo sapiens, UniProt P08173)
Construct: expressed in transfected cells; host or cells: CHO-K1 (Chinese hamster ovary, ATCC), stably expressing M4 and Gqi5
run.description: mAChR M4 cell-based functional assay (calcium flux, EC80 acetylcholine response)
measurement.conditions: M4/Gqi5/CHO-K1 cells; decrease of the response to an EC80 concentration of acetylcholine; read-out: Human M4 IC50
pIC50: −log10 of the molar value.

molecule	pIC50
[2H]C([2H])(C1CC(C)(C)OC(C)(C)C1)N1C[C@H]2C[C@H](Nc3ccc(-c4ccc5nn(C)cc5c4C)nn3)C[C@H]2C1	8.30
Cc1c(-c2ccc(N[C@H]3C[C@@H]4CN(CC5CCOCC5)C[C@@H]4C3)nn2)ccc2nn(C)cc12	9.39
[2H]C([2H])([C@@H]1CCCOC1)N1C[C@H]2C[C@H](Nc3ccc(-c4ccc5nn(C)cc5c4C)nn3)C[C@H]2C1	9.31
Cc1c(-c2ccc(N[C@H]3C[C@@H]4CN(Cc5ccccn5)C[C@@H]4C3)nn2)ccc2nn(C)cc12	8.66
[2H]C([2H])([C@@H]1CCCCO1)N1C[C@H]2C[C@H](Nc3ccc(-c4ccc5nn(C)cc5c4C)nn3)C[C@H]2C1	9.44
[2H]C([2H])([2H])N(c1cc(C(F)(F)F)c(-c2ccc3nn(C)cc3c2C)nn1)[C@H]1C[C@@H]2CN(CC3CCOCC3)C[C@@H]2C1	6.89
[2H]C([2H])([C@H]1CCCOC1)N1C[C@H]2C[C@H](Nc3ccc(-c4ccc5nn(C)cc5c4C)nn3)C[C@H]2C1	9.10
[2H]C([2H])(C1CCOCC1)N1C[C@H]2C[C@H](Nc3ccc(-c4ccc5nn(C([2H])([2H])[2H])cc5c4C)nn3)C[C@H]2C1	9.43
[2H]C1([2H])CC(C([2H])([2H])N2C[C@H]3C[C@H](Nc4nnc(-c5ccc6nn(C)cc6c5C)cc4C)C[C@H]3C2)CC([2H])([2H])O1	9.68
[2H][C@@]1(Nc2ccc(-c3ccc4nn(C)cc4c3C)nn2)C[C@H]2CN(CC3CCOCC3)C[C@H]2C1	9.48
[2H]C1([2H])CC(C([2H])([2H])N2C[C@H]3C[C@H](Nc4ccc(-c5ccc6nn(C)cc6c5C)nn4)C[C@H]3C2)CC([2H])([2H])O1	9.40
[2H]C([2H])(N1C[C@H]2C[C@H](Nc3ccc(-c4ccc5nn(C)cc5c4C)nn3)C[C@H]2C1)C1(F)CCOCC1	9.00
[2H]C([2H])([C@H]1COCCO1)N1C[C@H]2C[C@H](Nc3ccc(-c4ccc5nn(C)cc5c4C)nn3)C[C@H]2C1	9.38
[2H]C([2H])(C1CCOCC1)N1C[C@H]2C[C@H](Nc3ccc(-c4ccc5nn(C)cc5c4C(F)(F)F)nn3)C[C@H]2C1	8.96
[2H]C([2H])([C@H]1CCCCO1)N1C[C@H]2C[C@H](Nc3ccc(-c4ccc5nn(C)cc5c4C)nn3)C[C@H]2C1	9.39
COc1cc(-c2ccc3nn(C)cc3c2C)nnc1N[C@H]1C[C@@H]2CN(CC3CCOCC3)C[C@@H]2C1	9.10
[2H]C([2H])(C1CCOCC1(C)C)N1C[C@H]2C[C@H](Nc3ccc(-c4ccc5nn(C)cc5c4C)nn3)C[C@H]2C1 (some centres unmarked)	9.05
